- Tested on: LOX IMVI melanoma
- protocol-notes: NCI-60 one-dose screen, 48 h
- conditions: 10 µM unless noted
About 83,000 compounds went through this panel and 20% of them were active in at least one assay; those are over-represented in the sample as a whole. Activity calls are given as the source filed them. How the source made its calls: active means growth percent below 10; inactive means the rest.
Respond using exactly one of the listed classes: active, inactive

compound	label-value
CCN1CCN(CC(=O)Nc2nc3ccc(NCc4ccc(Br)cc4)cc3s2)CC1	active

Task: Returns: the outcome recorded for CCN1C(=O)N(CC)C2C1NN=c1s/c(=C\c3ccccc3Br)c(=O)n12 (configuration not stated) in this assay.
Result: inactive

Task: Which result was noted for this compound in the test: COC(=O)c1c2c(n3ccc(C)cc13)C(=O)c1ccccc1C2=O
Result: inactive

Task: How did this test come out for CC(C)=CC(=O)N[C@@H]1CC2CCC3C(CC[C@@]4(C)C3CC[C@@H]4C(C)N(C)C)[C@@]2(C)C[C@@H]1O (some centres not stated) ?
Result: active

Task: Per the assay record, what outcome was assigned to COC(=O)/C=C1/SC(=Nc2cccc(Cl)c2)N(CCc2c[nH]c3ccc(O)cc23)C1=O ?
Result: active

Task: Fill in: this test's call for CCN(CCO)CC(C)Nc1ccc([N+](=O)[O-])c2sc3ccccc3c(=O)c12 (configuration not stated) is ___
Result: inactive

Task: Please indicate how the test categorized O=C(CSc1nnc2sc(Nc3cccc(Cl)c3)nn12)c1ccc(F)cc1 .
Result: inactive

Task: Hi, do you know how O=C(N/N=C/c1ccc(Cl)cc1Cl)c1ccc2nc(-c3ccc(Cl)cc3)[nH]c2c1 came out in this test?
Result: active

Task: For CN1CCN(Cc2ccc(NC(=O)c3cncc(C#Cc4cnn5ccccc45)c3)cc2C(F)(F)F)CC1 , which call appears in the assay record?
Result: active

Task: Please let me know the test result on file for Cc1ccc(C)n1/C=C/n1c(C)ccc1C .
Result: inactive

Task: Dear colleague, could you share the recorded outcome for COc1cc2nc(Nc3cccc(F)c3)nc(Nc3cc(C)[nH]n3)c2cc1OC when you have a moment?
Result: active
